test system: A549; type: functional, Homo sapiens
Description: Tested in vitro for cytotoxic activity against lung carcinoma (A-549) cell line
Below, each of the compounds is paired with its reported ED50 value.
Readout Type: ED50

| Compound | Reported Result |
| --- | --- |
| COc1cc(OC)cc(-c2nc(O)c3ccccc3n2)c1 | > 20 µg/mL |
| COc1ccccc1C1NC(=O)c2ccccc2N1 (stereo not drawn) | > 20 µg/mL |
| COc1ccccc1-c1nc(O)c2ccccc2n1 | > 20 µg/mL |
